tested on: peripheral blood mononuclear cells (PBMC), T cells; assay: ELISpot assay, IL-5 release (SFC) after stimulation with a-synuclein epitope pools; assay type: cell-based, human; conditions: Patients Summary; PD patients; single peptide
List of IL-g Response Frequency values.
# number only, unit % dropped from output

Known IL-g Response Frequency results, listed for orientation:
3521.0051 (EEGAPQEGIL; listed as Homo sapiens) = 0
3521.0021 (PGKTKEGVL; listed as Homo sapiens) = 0
3521.0006 (VLYVGSKTK; listed as Homo sapiens) = 33
3521.0069 (GVAEAAGKTK; listed as Homo sapiens) = 0

# input for lookup
# get_value(readout='IL-g Response Frequency', item= 3521.0013 (VTNVGGAVV; listed as Homo sapiens) )
0
